The following compounds are shown together with reported INHIBITION values.
System: Plasmodium berghei
Test summary: Screen against P. berghei liver stage (PbLuc), transformed with Luciferase, at 2uM
Assay type: functional, HepG2
Condition details: tested at 2 uM
The whole screen tested about 68,000 compounds, of which about 2,700 (4%) showed an effect of 50% or more. For the sample, strong results were picked, then their nearest neighbours and some compounds at random.
Phrase the answer as number then unit, nothing more needed.

Give recorded INHIBITION with Plasmodium berghei for the following compound: `O=C(CSc1ccc2c(c1)OCCO2)NS(=O)(=O)c1cccnc1`
16.95%

Give recorded INHIBITION with Plasmodium berghei for the following compound: `O=C(c1cccc(F)c1)N1CCC2(CC1)CN(c1ccccn1)CCO2`
-29.13%

Give recorded INHIBITION with Plasmodium berghei for the following compound: COCC1CC2(CCN(C(=O)c3ccccc3C)CC2)CN1C(C)C (stereo unspecified)
24.86%

Give recorded INHIBITION with Plasmodium berghei for the following compound: `Cc1ccc(CN2CC[C@@H]3[C@@H]2CCN3C(=O)Cc2cccs2)o1`
-45.36%

Give recorded INHIBITION with Plasmodium berghei for the following compound: `O=C(Nc1ccc2c(c1)OCO2)Nc1cnn(C2CCOCC2)c1`
-59%

---
Give recorded INHIBITION with Plasmodium berghei for the following compound: O=C(c1ccccc1)N1CCCC2(CCN2Cc2cccc(F)c2)C1 (stereo unspecified)
29.03%

----------
Test system: Plasmodium berghei
Test summary: Screen against P. berghei liver stage (PbLuc), transformed with Luciferase, at 2uM
Assay type: functional, HepG2
Condition details: tested at 2 uM
The whole screen tested about 68,000 compounds, of which about 2,700 (4%) showed an effect of 50% or more. The sample holds strong results, similar compounds and a random draw of the others, so the mix is not that of the screen.
Value kind: INHIBITION (%)
Your answer should be a plain number; it is taken to be in %.

Use the examples below as a reference point.
For the compound CC(c1cccc(O)c1)N(C)S(N)(=O)=O (stereo unspecified) , what INHIBITION is on record?
-21.47

For the compound CC(c1cccc(O)c1)N(C)S(=O)(=O)c1cccnc1 (stereo unspecified) , what INHIBITION is on record?
-18.09

For the compound OCCOCCNCC1(c2ccc(F)cc2)CCOC1 (stereo unspecified) , what INHIBITION is on record?
-18.52

---
For the compound CC(C)=CCCN1CCN(C)C2(CCC(=O)N(C)CC2)C1 (stereo unspecified) , what INHIBITION is on record?
77.56

For the compound `Cn1cccc1C(=O)N1CCC2(CC1)CC(N1CCOCC1)C2` , what INHIBITION is on record?
35.89

For the compound CCN(C(C)c1cccc(O)c1)S(=O)(=O)c1cccnc1 (stereo unspecified) , what INHIBITION is on record?
52.83

----------
Test system: Plasmodium berghei
Test summary: Screen against P. berghei liver stage (PbLuc), transformed with Luciferase, at 2uM
Format: functional, HepG2
Condition details: tested at 2 uM
Screen size: about 68,000 compounds; about 2,700 (4%) showed an effect of 50% or more. The list comes from a sample in which strong results are over-represented; it also holds close analogues and randomly drawn compounds.
Value kind: INHIBITION (%)
Your answer should be a plain number; it is taken to be in %.

For the compound `CNc1oc(-c2cc(S(=O)(=O)N3CCCCCC3)c(C)o2)nc1C#N` , what INHIBITION is on record?
5.96

---
For the compound `Cc1oc(-c2nc(C#N)c(NC(C)(C)C)o2)cc1S(=O)(=O)N1CCCC1` , what INHIBITION is on record?
58.42

For the compound `CCOc1ccc(S(=O)(=O)N(CCOC)Cc2ccoc2)cc1F` , what INHIBITION is on record?
21.37

For the compound CC(O)CCn1ccc2[nH]c(=O)c(C#N)cc2c1=O (configuration not stated) , what INHIBITION is on record?
44.41

For the compound `COCCN(Cc1ccoc1)S(=O)(=O)c1ccc(F)c(C)c1` , what INHIBITION is on record?
-10.1

For the compound `CCOc1ccc(S(=O)(=O)N(CCOC)Cc2ccncc2)cc1F` , what INHIBITION is on record?
60.35

For the compound `CCc1ncncc1C(=O)N1CCCN(Cc2ccc(C)cc2)CC1` , what INHIBITION is on record?
-8.84

For the compound CCCOC(C)Cn1ccc2[nH]c(=O)c(C#N)cc2c1=O (configuration not stated) , what INHIBITION is on record?
59.1

For the compound `CC(C)N1CCC2(CCCN(C(=O)c3cncn3C)C2)CC1` , what INHIBITION is on record?
51.36

For the compound CCC(Cn1ccc2[nH]c(=O)c(C#N)cc2c1=O)OC (configuration not stated) , what INHIBITION is on record?
0.03

For the compound `CN1CCC2(CCCN(C(=O)c3cncn3C)C2)CC1` , what INHIBITION is on record?
13.26

For the compound CC(C)N1CCOCC2(CCCN(C(=O)c3cncn3C)C2)C1 (configuration not stated) , what INHIBITION is on record?
9.1

----------
Tested on: Plasmodium berghei
Test summary: Screen against P. berghei liver stage (PbLuc), transformed with Luciferase, at 2uM
Assay type: functional, HepG2
Condition details: tested at 2 uM
Among all 68,000 compounds or so, about 2,700 (4%) showed an effect of 50% or more. For the sample, strong results were picked, then their nearest neighbours and some compounds at random.
Threshold 20%. INHIBITION below it: y. INHIBITION at it or above: n.

Use these answered entries as a reference point.
Please indicate whether the reported INHIBITION of CCOCC1CN(Cc2ccco2)Cc2nccn2C1 (stereo unspecified) is strictly below 20%.
y

Please indicate whether the reported INHIBITION of CN(Cc1cccc(F)c1)C(=O)CN1CCCCC1Cn1cncn1 (stereo unspecified) is strictly below 20%.
y

Please indicate whether the reported INHIBITION of O=C(Cc1cccnc1)N1CCCC(n2cncn2)C1 (stereo unspecified) is strictly below 20%.
y

Please indicate whether the reported INHIBITION of CC(C)=CCC1(C(=O)O)CCCN(CCC(=O)NC2CC2)C1 (stereo unspecified) is strictly below 20%.
y

Please indicate whether the reported INHIBITION of `CN(C)c1ccc(CN2CCN(c3ccc(C#N)cc3)C(=O)C2)cn1` is strictly below 20%.
y

---
Please indicate whether the reported INHIBITION of `O=C(Nc1cnn(COc2ccc(F)cc2Cl)c1)C1CC1` is strictly below 20%.
n

Please indicate whether the reported INHIBITION of `NC(=O)CCn1ccc(NC(=O)c2ccc(OCC3CC3)cc2)n1` is strictly below 20%.
y

Please indicate whether the reported INHIBITION of `O=C(O)[C@]12CCCN(Cc3ccsc3)C[C@H]1CN(c1ccccn1)C2` is strictly below 20%.
n

Please indicate whether the reported INHIBITION of `CN1C(=O)c2ccc(C(=O)N(Cc3cnn(C)c3)C3CC3)cc2C1=O` is strictly below 20%.
n

Please indicate whether the reported INHIBITION of `Cc1ccc(CN2CCN(c3cncc(N(C)C)n3)CC2=O)cc1C` is strictly below 20%.
n

Please indicate whether the reported INHIBITION of `CCNc1nc2cn(-c3ccc(C)c(C)c3)c(=O)c-2c[nH]1` is strictly below 20%.
y

Please indicate whether the reported INHIBITION of `Cc1ccc(CN2CCN(Cc3ccc(N(C)C)nc3)CC2=O)cc1C` is strictly below 20%.
n

Please indicate whether the reported INHIBITION of `Cc1ncsc1CCN(C)C(=O)c1ccc(CN2CCCCC2)cc1` is strictly below 20%.
y

----------
System: Plasmodium berghei
Test summary: Screen against P. berghei liver stage (PbLuc), transformed with Luciferase, at 2uM
Assay type: functional, HepG2
Condition details: tested at 2 uM
Screen size: about 68,000 compounds; about 2,700 (4%) showed an effect of 50% or more. The list comes from a sample in which strong results are over-represented; it also holds close analogues and randomly drawn compounds.
Value kind: INHIBITION (%)
Your answer should be a plain number; it is taken to be in %.

For the molecule `NC(=O)N1CCc2ncc(CNC(=O)CC3CC3)n2CC1` , what INHIBITION is on record?
25.08

For the molecule CN1CCN(C2COC3(CCN(Cc4ccsc4)CC3)C2)CC1 (stereo unspecified) , what INHIBITION is on record?
-0.38

For the molecule `Cc1ccc(-c2nnc(CNCCn3cccn3)o2)cc1` , what INHIBITION is on record?
-9.22

For the molecule CC(CCN1CCOCC1)NC(=O)c1cccc(C(F)(F)F)c1F (stereo unspecified) , what INHIBITION is on record?
18.37

For the molecule `CN(C)S(=O)(=O)N1CC[C@]2(C[C@H](OCc3ccccn3)CO2)C1` , what INHIBITION is on record?
-51.66

---
For the molecule `Cn1cc(C(=O)Nc2ccc3c(c2)CN(C(=O)C2CC2)CC3)nn1` , what INHIBITION is on record?
0

For the molecule `N#CCCN(C(=O)CCc1cccnc1)c1ccc2c(c1)OCCO2` , what INHIBITION is on record?
33.26
